# assay-comment: Human HepG2 cell viability assay in 384 well format
# Type: toxicity, cell-based
# Set-up: dose 125 nL, time 70.5 hour; concentration not given beside the values
# condition-context: HepG2 cells, read-out: Inhibition
reported-property: cytotoxicity at 70.5 h (%)
One number for each entry, in %.

compound: CN1CC(c2ccccc2)CC12CCN(C(=O)c1ccncc1)CC2 (centres undefined)
value-measured: -2.51
--
compound: CC(=O)N1CCN(C(=O)Nc2ccccc2Cl)[C@H]2CS(=O)(=O)C[C@H]21
value-measured: -16
--
compound: Cc1cc(-c2ccc(C(=O)O)cc2)nc(C2CCN(C(C)C)CC2)n1
value-measured: 0.538
--
compound: CN(C)c1cc(CNC(=O)Nc2ccc(C#N)cc2)ccn1
value-measured: -11.3
--
compound: O=C(O)c1ccccc1-c1ccc(CN2CCC(CO)C2)cc1 (centres undefined)
value-measured: -6.69
--
compound: CNC(=O)c1ccc(CNC(=O)c2cc(C(C)C)n(C)n2)cc1
value-measured: 10.9
--
compound: COC(=O)c1cc(NC(=O)CCc2cscn2)ccc1C
value-measured: -5.71
--
compound: Cn1ccnc1CN1CCCC(Cc2ccccn2)C1 (centres undefined)
value-measured: 34.7

Please state cytotoxicity at 70.5 h for every compound in the list that follows.
1. Cc1cnn(CC2CCCN2C(=O)c2cc3ccccc3[nH]2)c1 (centres undefined)
2. COc1ccc(CCC(=O)N2CCCCC2Cn2cccn2)cc1F (centres undefined)
3. Cn1cnnc1C1CCCN(C(=O)c2ccc3c(c2)OCCCO3)C1 (centres undefined)
4. Cc1csc(N2CCN(C(=O)C(C(C)C)n3cncn3)CC2)n1 (centres undefined)
5. CCc1nnc2n1CCN(Cc1ccc3c(c1)OCCO3)C2

1. 8.1
2. -7.2
3. -2.02
4. -1.51
5. 15.4

---

# assay-comment: Human HepG2 cell viability assay in 384 well format
# Type: toxicity, cell-based
# Parameters: dose 125 nL, time 70.5 hour; concentration not given beside the values
# condition-context: HepG2 cells, read-out: Inhibition
reported-property: cytotoxicity at 70.5 h (%)
Numbers only, in %.

molecule: Cc1n[nH]c(C)c1C1COCCN1C(=O)c1n[nH]c2ccccc12 (stereo unspecified)
value-measured: 12.3

Dear colleague, could you send me cytotoxicity at 70.5 h for each of the items below? Thanks.
1. Cn1cnc2ccc(NC(=O)CC3CCN(C4CCCCC4)CC3)cc21
2. Cc1nn(C)c(N(C)C)c1CNCc1ccc(Cn2cccn2)cc1
3. Cn1ccnc1CN1CCC2(COCCN(Cc3ccsc3)C2)C1 (stereo unspecified)
4. CC(C)N1CCOC(Cc2nn3c(Cc4ccccc4)nnc3s2)C1 (stereo unspecified)

1. -4.48
2. -4.86
3. -11.4
4. -18.2

Could I get cytotoxicity at 70.5 h for every one of these entries?
1. Cn1cccc1C(=O)N1C[C@@H]2C[C@@H](c3nnc(C4CC4)o3)O[C@@H]2C1
2. Fc1cccc(-n2ccc(CN3CCCC3Cn3cncn3)n2)c1 (stereo unspecified)
3. O=C(c1ccc(F)cc1)N1CCOC(c2nc(-c3ncccn3)no2)C1 (stereo unspecified)
4. CC1CC(=O)c2cc(C(=O)N3CCN(C)CC3)c(=O)[nH]c2C1 (stereo unspecified)
5. CN(c1ncccc1C#N)C1CCN(CCc2ccncc2)CC1
6. Cc1nonc1CC(=O)N1CCC2(CCCN(C3CCOCC3)C2=O)C1 (stereo unspecified)
7. O=C1COC2(CCN(Cc3ccoc3)CC2)CN1c1ccccc1
8. CCN1Cc2nc(OC)c(CNC(=O)CCC3CCCC3)cc2C1=O

[-3.51, -9.03, -5.53, -5.53, -1.68, -5.27, 5.1, -11.1]

Working through the 5 molecules below one at a time, give cytotoxicity at 70.5 h for each.
1. Cc1cc(CNC(=O)CC2CCN(C(C)C)CC2)n(C)n1
2. CN1CCN(C(=O)c2nc3c(o2)CN(C(=O)c2cccnc2)C3)CC1
3. CC(NC(=O)c1cccs1)C(=O)NS(=O)(=O)Cc1ccc(C#N)cc1 (stereo unspecified)
4. CCOCC1CCN(C(=O)C(c2c(F)cccc2F)N(C)C)CC1 (stereo unspecified)
5. CCOc1ccccc1CN(CC)Cc1ccc(S(=O)(=O)NC)cc1

1. 16.3
2. -6.31
3. 4.04
4. 0.534
5. -5.11

Hello, I would appreciate it if you could give cytotoxicity at 70.5 h for each entry below.
1. CC(C)C1CN(S(=O)(=O)c2cccc(C#N)c2)CCS1 (stereo unspecified)
2. O=c1c2ccccc2nc2n1CCC2O (stereo unspecified)
3. O=C(CCN1CCc2cncnc2C1)N1CCc2sccc2C1
4. Cc1cccc(CN2CC[C@H]3CO[C@H](CNC(=O)N(C)C)[C@H]3C2)c1

1: 8.4; 2: -12.8; 3: -1.14; 4: -3.19

Please report cytotoxicity at 70.5 h for every entry that follows.
1. Cn1ccc(C(=O)NCC2(O)CCN(c3cnccn3)C2)n1 (stereo unspecified)
2. Cc1nc(N2CCC3(CCCN(C(C)C)C3=O)C2)c2sccc2n1 (stereo unspecified)
3. CN1CCC/C1=N\S(=O)(=O)c1ccc(NC(=O)c2ccc(Cl)s2)cc1

-1.53
-13.4
-18.3

For each of the items listed, what is its cytotoxicity at 70.5 h?
1. COCCCNc1ncc(-c2cccc(F)c2)c(-c2nccn2C)n1
2. CNC(=O)C1CN(c2ccnc(C)n2)CCN1Cc1ccccc1 (stereo unspecified)

-6.45
-3.79

Working through the 4 molecules below one at a time, give cytotoxicity at 70.5 h for each.
1. CCCOc1cc(CNC(=O)Nc2ccccn2)ccn1
2. CC1CCc2sc(C(=O)Nc3cnn(C)c3)cc2C1 (stereo unspecified)
3. CC(NC(=O)c1cccc[n+]1[O-])c1ccc2c(c1)CCC(=O)N2 (stereo unspecified)
4. COC(=O)c1ccc(N2CCN(C(=O)c3ccc(=O)n(C)c3)CC2)cc1

1. 45.7
2. -2.28
3. -3.74
4. -5.8

Each molecule below has a reported value. Please supply its cytotoxicity at 70.5 h.
1. OCCn1cc(CN2CCN(CCOCC(F)(F)F)CC2)cn1
2. O=C(NCC1CC1)[C@H]1C[C@@H]2CCN(CCc3ccccc3)C[C@H]2O1
3. Cc1cc(-c2cnc(N3CCCC(C)C3)nc2-c2cccnc2C)on1 (stereo unspecified)

1: 6.14; 2: -4.59; 3: 23.3

---

# assay-comment: Human HepG2 cell viability assay in 384 well format
# Type: toxicity, cell-based
# Parameters: dose 125 nL, time 70.5 hour; concentration not given beside the values
# condition-context: HepG2 cells, read-out: Inhibition
reported-property: cytotoxicity at 70.5 h (%)
One number for each entry, in %.

compound: COc1ccc(CNC2CCN(c3ccccc3)C2)cc1O (centres undefined)
u: %
cytotoxicity at 70.5 h: 19.7
--
compound: CC(C)N1[C@H](CN2CCCC2)C[C@@H]2CN(C(=O)c3ccoc3)CC[C@@H]21
u: %
cytotoxicity at 70.5 h: 1.33
--
compound: Cc1ccc(C(=O)N2CCO[C@H]3[C@H](OCCN(C)C)CC[C@@H]32)o1
u: %
cytotoxicity at 70.5 h: -4.42
--
compound: O=C1NCCN(CC2CC2)C12CCN(Cc1ccc3c(c1)OCO3)CC2
u: %
cytotoxicity at 70.5 h: 41.2
--
compound: Cc1cc(CN2CCCC2)cc(Oc2nc(C)cnc2C)c1
u: %
cytotoxicity at 70.5 h: -5.62
--
compound: CC(CCc1ncnn1Cc1cccc(Cl)c1)N1CCCC1 (centres undefined)
u: %
cytotoxicity at 70.5 h: -9.23
--
compound: O=C(c1ccccc1F)N1CCCn2c(CN3CCCCC3)nnc2C1
u: %
cytotoxicity at 70.5 h: -6.86
--
compound: C[C@@H]1CN(C2CCN(Cc3nn(C)c4cccc(Cl)c34)CC2)C[C@H](C)O1
u: %
cytotoxicity at 70.5 h: 25.7
--
compound: CCc1noc(CNc2nc(-c3cccnc3)nc3c2CCNCC3)n1
u: %
cytotoxicity at 70.5 h: -14.3
--
compound: O=C(c1ccccc1N1CCOCC1)N1CCCC1Cn1cccn1 (centres undefined)
u: %
cytotoxicity at 70.5 h: -4.2

Give cytotoxicity at 70.5 h for each of the items listed below.
1. Cc1cnn(C2CCCN(C(=O)c3ccc(N4CCCC4)nn3)C2)c1 (centres undefined)
2. Cc1nc2cc(C(=O)N3CCCC(n4ccnc4)C3)ccc2n1C (centres undefined)
3. CCCc1nnsc1C(=O)N1CCN(CC(O)c2ccco2)CC1 (centres undefined)

1: 1.64; 2: -2.44; 3: -0.0412

Below is a list of compounds. For each, state its recorded cytotoxicity at 70.5 h.
1. O=C(COC1CCCCC1)N1CCCC(n2ccnc2)C1 (centres undefined)
2. Cc1nc(N2CCCC2)nc(C)c1NC(=O)c1ccco1
3. CC(C)[C@@H]1CN(C(=O)c2ccsc2)C[C@H]1C(=O)O
4. COc1ccc(NC(=O)N(C)Cc2ccsc2)cn1

-6.58
-1.46
-6.74
-3.11

For each listed entry, give its cytotoxicity at 70.5 h.
1. Clc1ccc(OCCNC2(c3ccc(Br)cc3)CCOCC2)cc1
2. CCS(=O)(=O)N1CCN(C(=O)NC(C)C)CC2(CNC(=O)C2)C1 (centres undefined)

1: 9.53; 2: -26.5

// batch mode: one cytotoxicity at 70.5 h value per listed entry
1. OCCCNc1cccc(COC2CCCCC2)c1
2. CC(=O)N1CCN(Cc2ccc(F)cc2)CC2(CC(=O)N(C)C2)C1 (centres undefined)
3. Cn1cnnc1C1CCN(c2cncc(-n3cccn3)n2)CC1
4. CN(C)CCN(C)C(=O)NC1CCC(Oc2ccccc2C#N)CC1 (centres undefined)
5. Cn1ncc(N2CCOC(CCNC(=O)CO)C2)cc1=O (centres undefined)

[21, 23.3, 1.11, -4.89, 13.3]

Numbers sourced from ChEMBL document CHEMBL3507680.
